assay-protocol: Plasma levels of DAS or MPH during the displacement studies
Format: in vivo, rhesus macaques (Macaca mulatta)
condition-notes: rhesus monkey, plasma, iv, 0.2 mg/kg, DAS 0.2 mg/kg i.v. 3 min bolus; individual animals A-D; read-out: Cmax
value-type: Cmax (ng/mL)
Express it in ng/mL; write the number only.

For the compound shown here, N[C@@H]1CC[C@@H](c2ccc(Cl)c(Cl)c2)c2ccccc21 , give the reported Cmax.
190

---

assay-protocol: Plasma levels of DAS or MPH during the displacement studies
Assay type: in vivo, rhesus macaques (Macaca mulatta)
condition-notes: rhesus monkey, plasma, iv, 0.5 mg/kg, MPH 0.5 mg/kg i.v. 3 min bolus; individual animals A-D; read-out: Cmax
value-type: Cmax (ng/mL)
Express it in ng/mL; write the number only.

For the compound shown here, COC(=O)C(c1ccccc1)C1CCCCN1 (racemic) [MPH, reference compound] , give the reported Cmax.
1130
